Provide the reported Ki of each item.
subjectOfTest: HPK1 (Homo sapiens (Human), UniProt Q92918, S171E/T165E)
Sequence (Q92918 whole entry T165E/S171E): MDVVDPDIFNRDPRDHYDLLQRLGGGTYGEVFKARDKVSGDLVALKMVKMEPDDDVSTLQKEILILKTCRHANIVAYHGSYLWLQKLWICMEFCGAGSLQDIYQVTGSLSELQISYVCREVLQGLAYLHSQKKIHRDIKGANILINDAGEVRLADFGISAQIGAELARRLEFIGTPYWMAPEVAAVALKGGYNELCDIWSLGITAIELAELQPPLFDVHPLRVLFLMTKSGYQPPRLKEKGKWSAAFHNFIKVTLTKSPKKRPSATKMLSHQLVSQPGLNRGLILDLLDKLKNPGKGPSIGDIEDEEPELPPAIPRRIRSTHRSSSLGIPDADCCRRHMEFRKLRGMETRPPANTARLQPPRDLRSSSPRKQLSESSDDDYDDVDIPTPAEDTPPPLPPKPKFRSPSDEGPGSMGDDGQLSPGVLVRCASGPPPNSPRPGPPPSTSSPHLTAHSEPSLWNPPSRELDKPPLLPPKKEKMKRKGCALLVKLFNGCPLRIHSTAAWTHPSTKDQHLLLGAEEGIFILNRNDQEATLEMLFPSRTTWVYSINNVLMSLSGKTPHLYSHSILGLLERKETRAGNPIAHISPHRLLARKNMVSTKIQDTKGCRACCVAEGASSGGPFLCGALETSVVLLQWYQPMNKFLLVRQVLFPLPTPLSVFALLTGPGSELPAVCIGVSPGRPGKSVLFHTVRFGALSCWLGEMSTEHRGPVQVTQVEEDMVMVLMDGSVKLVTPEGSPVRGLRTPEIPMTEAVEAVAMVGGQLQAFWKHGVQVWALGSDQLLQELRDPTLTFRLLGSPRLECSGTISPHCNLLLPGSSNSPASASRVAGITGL
procedureDetails: HPK1-FL HTRF Enzymatic Assay (HTRF)
Type: biochemical
experimentalParameters: HPK full length T165E S171E 0.125 nM, ATP 1 mM, Biotin-SLP76 100 nM, read-out: HPK1 Ki (nM), H = HTRF
Where a name gives a salt, the structure may show the parent alone.
One number for each entry, in nM.

Some compounds with known Ki results, for comparison:
| compound | Ki, nM |
| --- | --- |
| CO[C@@H]1CCNc2c1ncc(-c1cc(F)c3cnc(Nc4cc5n(n4)CC(=O)N(C)CC5)cc3c1)c2C (single isomer, unassigned) [Compound 234b] | 2.1 |
| Cc1c(N)cncc1-c1cc2cc(Nc3cc4n(n3)CS(=O)(=O)N(C)CC4C)ncc2cc1F (stereo not shown) [Compound 113] | 1.2 |

I'm hoping you can list Ki for every compound here, please.
1. CN1CCc2cc(Nc3cc4cc(-c5cccc6c5CCNC6)c(F)cc4cn3)nn2CC1=O [Compound 200]
2. Cc1c(NCC(F)(F)F)cncc1-c1cc2cc(Nc3cc4n(n3)CC(=O)NCC4)ncc2cc1F [Compound 239]
3. Cc1c(-c2cc3cc(Nc4cc5n(n4)CC(=O)N(C(C)C)CC5)ncc3cc2F)cnc2c1NC(=O)CO2 [Compound 123]
4. Cc1c(-c2cc3cc(Nc4cc5n(n4)CC(=O)NCC5)ncc3cc2F)cnc2c1NCCC2O (racemic) [Compound 201, formate salt]
5. Cc1c(N)cncc1-c1cc2cc(Nc3cc4n(n3)CC(=O)N(C(C)C)CC4)ncc2cc1F [Compound 119]

1. 127
2. 0.062
3. 0.11
4. 0.11
5. 0.05
